The origin of these recorded values is the supplement of paper PMC6470124.

Assay: absolute recovery over mixed-bed multilayer solid-phase extraction; higher = better recovery
Details: wastewater influent; enrichment method: SPE
endpoint label: absolute recovery (%)
Output spec: scalar in %, unitless text.

Guide cases for absolute recovery, answers given:
molecule	unit spec	absolute recovery
Cc1cc(C2CC2)nc(Nc2ccccc2)n1	%	89.9
CCNc1nc(Cl)nc(NC(C)(C)C)n1	%	93.4
CC1(C)CON(Cc2ccccc2Cl)C1=O	%	87.1
CCNc1nc(NC(C)C)nc(OC)n1	%	96
CNC(=O)Oc1cccc2c1OC(C)(C)C2	%	93.5

Problem: Return value of absolute recovery for input CCC1OC(=O)C(C)C(OC2CC(C)(OC)C(O)C(C)O2)C(C)C(OC2OC(C)CC([NH+](C)C)C2O)C(C)(O)CC(C)C[NH+](C)C(C)C(O)C1(C)O (centres undefined) , no commentary.
Result: 96.7
